Source listed as paper PMC7024175.

Biological target: CAMKK2 (Homo sapiens, UniProt Q96RR4)
Construct: made in house
Sequence (Q96RR4 whole entry): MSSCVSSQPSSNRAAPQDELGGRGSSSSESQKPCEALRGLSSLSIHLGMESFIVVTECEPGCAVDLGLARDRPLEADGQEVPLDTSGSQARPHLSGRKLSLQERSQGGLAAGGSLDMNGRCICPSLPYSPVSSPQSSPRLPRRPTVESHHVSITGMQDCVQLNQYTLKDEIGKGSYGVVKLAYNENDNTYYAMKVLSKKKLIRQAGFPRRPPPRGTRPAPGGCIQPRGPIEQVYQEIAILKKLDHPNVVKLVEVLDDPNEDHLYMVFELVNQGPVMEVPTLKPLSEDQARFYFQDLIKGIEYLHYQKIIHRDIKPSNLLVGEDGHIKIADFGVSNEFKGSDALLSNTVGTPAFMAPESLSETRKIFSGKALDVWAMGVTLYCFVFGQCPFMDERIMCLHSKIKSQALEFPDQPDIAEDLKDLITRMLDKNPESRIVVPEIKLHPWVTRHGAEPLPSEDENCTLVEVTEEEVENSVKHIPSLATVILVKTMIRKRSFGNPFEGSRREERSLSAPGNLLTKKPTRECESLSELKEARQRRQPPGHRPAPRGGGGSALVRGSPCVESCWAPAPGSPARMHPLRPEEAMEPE
Test: CAMKK2 enzyme assay (radiometric, CaMKKtide)
Assay type: biochemical
Conditions: 0.1 µM inhibitor
The compounds listed here are annotated with their PoC (activity remaining).
Give your result in % as a bare value.

Solved cases below.
O=C(NCCCNc1nc(Nc2cccc(CN3CCOCC3)c2)ncc1C1CC1)C1CCC1 [MRT67307]	86
N#Cc1c(Oc2ccc(F)c(NC(=O)Cc3cccc(C(F)(F)F)c3)c2)ccc2nc(NC(=O)C3CC3)sc12 [TAK632]	87
O=C1NC(=O)c2c1c1c3ccccc3n3c1c1c2c2ccccc2n1C1CCC3O1 [SB 218078]	86
CC(=O)NCC(=O)N1[C@@H]2CC[C@H]1c1ccc(Nc3ncc(C(F)(F)F)c(NC4CCC4)n3)cc12 [PF03814735]	70
CNC(=O)c1cc(Oc2ccc(NC(=O)Nc3cc(C(C)(C)C)nn3-c3ccc4ncccc4c3)c(F)c2)ccn1 [Rebasitinib]	93
Cn1cc(C2=C(c3cn(CCCSC(=N)N)c4ccccc34)C(=O)NC2=O)c2ccccc21 [Ro 31-8220]	100

Entry under review: COc1cc(N2CCOCC2)ccc1Nc1ncc(F)c(Nc2ccccc2NS(C)(=O)=O)n1 [CZC 25146] . Reported PoC (activity remaining)?
101

Which PoC (activity remaining) value belongs to O=C(Nc1cccc(Nc2ncc(Br)c(NCCc3cnc[nH]3)n2)c1)N1CCCC1 [BX912] ?
90

Fill blank: measured PoC (activity remaining) of the compound Cc1ncc(CCCN(C)C)cc1Nc1ncc2c(n1)-c1ccc(C(F)(F)F)cc1NC(=S)C2 [MLN 0905] is ____.
95
